Reported normalized growth values are given for each entry in this list.
- protocol-description: chemical genetic growth profiling, strain panel (AID 1159580);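 note: tested at 20 µM; growth read once vehicle control cultures reached saturation at 30 °C; 1 = growth at the plate median or of vehicle wells; lower values mean less growth of the strain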
- condition-details: S. cerevisiae deletion strains, growth OD, locus YLR027C, strain aat2, hits give low values
In all, about 5,500 compounds went through this assay and about 2,000 (36%) were called active. Roughly 18% stayed inconclusive and do not appear here. Some of the results follow.
Lab note: record the figure alone, no unit after it.

Some molecules with recorded normalized growth:
{"columns": ["molecule", "observed-value"],
 "data": [
  ["CC1(C)C(=O)CC[C@@]2(C)C1C[C@@H](O)[C@@]1(C)C3=CC(=O)O[C@@H](c4ccoc4)[C@]3(C)CCC21 (some centres not stated)", 1.02],
  ["CC(=O)O[C@@H]1CC2C(C)(CC[C@H](O)C2(C)C)C2CC[C@]3(C)C(=CC(=O)O[C@H]3c3ccoc3)C21C (some centres not stated)", 1.01]
]}

Give its normalized growth value. Item: O=c1c(-c2ccc(O)cc2)coc2c(C3O[C@H](CO)[C@@H](O)[C@H](O)[C@H]3O)c(O)ccc12 (some centres not stated)
0.965

Give its normalized growth value. Item: C[C@@H]1CCC2[C@](C)(CO)[C@@H](O)CC[C@]2(C)[C@@]12CC[C@@](CO)(CCO)O2 (some centres not stated)
0.98

Give its normalized growth value. Item: `COc1c(O)cc2c(c1O)[C@H]1O[C@H](CO)[C@@H](O)[C@H](O)[C@@H]1OC2=O`
1.02

Give its normalized growth value. Item: COC1CC(O[C@H]2CC[C@]3(C=O)C4CC[C@]5(C)C(C6=CC(=O)OC6)CC[C@]5(O)C4CC[C@]3(O)C2)OC(C)C1O (some centres not stated)
1.02

Give its normalized growth value. Item: CO[C@H]1[C@@H](O)[C@@H](C)O[C@H](O[C@H]2CCC3(C)C4CCC5(C)[C@@H](C6=CC(=O)OC6)CC[C@]5(O)[C@@H]4CC[C@]3(O)C2)[C@@H]1O (some centres not stated)
1

----------
- protocol-description: chemical genetic growth profiling, strain panel (AID 1159580)
- condition-details: S. cerevisiae deletion strains, growth OD, locus YEL061C, strain CIN8
The whole screen tested about 5,500 compounds, of which about 2,000 (36%) were called active. Roughly 18% stayed inconclusive and do not appear here. No stated cut-off is given here; in the data, active means normalized growth mostly below about 0.91 (no sharp cut-off); inconclusive means no clear call, values can overlap the other calls; inactive means mostly above about 0.92. This is one part of the list.
A correct response names exactly one class from True for active, False for inactive

Worked examples, 3 compounds total:
{"columns": ["compound", "assigned-label"],
 "data": [
  ["CCN(CCS(=O)(=O)c1ccc(C)cc1)S(=O)(=O)c1ccccc1", "False"],
  ["O=C1c2ccccc2C(=O)N1CN1CCC(O)(c2ccc(Cl)cc2)CC1", "False"],
  ["O=C(/C=C(\\O)c1ccccc1)c1ccccc1O", "True"]
]}

// param item: `CNC(=S)N/N=C\c1cc(Br)cc(Br)c1O` ; yields the recorded call
True

// param item: CCOC(=O)C1C(=O)C=C(c2cccs2)CC1c1ccc(OC)c(OC)c1Cl (stereo not drawn) ; yields the recorded call
False

// param item: `CCc1ccc2c(O)c3c(cc2c1C(=O)OC)C(=O)c1c(O)ccc(O)c1C3=O` ; yields the recorded call
False

// param item: `COc1ccc(OC)c(CNC(=O)Cc2cccs2)c1` ; yields the recorded call
False

// param item: `Cn1c(SCC(=O)N2CCOCC2)nnc1-c1ccc2ncccc2c1` ; yields the recorded call
False

// param item: `CN(C)C(=O)C(CCN1CCC(O)(c2ccc(Cl)cc2)CC1)(c1ccccc1)c1ccccc1` ; yields the recorded call
False

// param item: `CC(C)Nc1nc(Cl)nc(NC(C)C)n1` ; yields the recorded call
False

// param item: `COc1nc(NC(C)C)nc(NC(C)C)n1` ; yields the recorded call
False

// param item: `O=C(O)c1ccccc1O` ; yields the recorded call
False

// param item: `O=C(Nc1ccc(OC(F)(F)F)cc1)Nc1cccc(C(=O)O)c1` ; yields the recorded call
False

// param item: `NC(N)=NC(N)=Nc1cc(Cl)cc(Cl)c1` ; yields the recorded call
False

// param item: CC(C)(C)NCC(O)COc1cccc2c1C[C@H](O)[C@H](O)C2 (stereo partly drawn) ; yields the recorded call
False

// param item: C[C@@H]1CCC2[C@](C)(CO)[C@@H](O)CC[C@]2(C)[C@@]12CC[C@@](CO)(CCO)O2 (stereo partly drawn) ; yields the recorded call
False

// param item: `COc1ccc(-c2cc(=O)c3c(O)cc(O)c(-c4cc(-c5cc(=O)c6c(O)cc(O)cc6o5)ccc4OC)c3o2)cc1` ; yields the recorded call
False

// param item: `COc1cc([N+](=O)[O-])c(OC)cc1SCC(=O)NNC(=O)c1cc(OC)c(OC)c(OC)c1` ; yields the recorded call
False

// param item: `COC(=O)Cc1cc(OC)c(OC)cc1[N+](=O)[O-]` ; yields the recorded call
False

// param item: `CSc1nc(NC(C)C)nc(NC(C)C)n1` ; yields the recorded call
False

// param item: `COc1ccc([N+](=O)[O-])c(OC)c1C(N)=O` ; yields the recorded call
False

// param item: CCC(=O)OCC(=O)[C@@]1(OC(=O)CC)[C@@H](C)CC2C3CCC4=CC(=O)C=C[C@]4(C)C3(F)[C@@H](O)C[C@@]21C (stereo partly drawn) ; yields the recorded call
False

// param item: `Nc1nc(/C(=C/CC(=O)O)C(=O)N[C@@H]2C(=O)N3C(C(=O)O)=CCS[C@H]23)cs1` ; yields the recorded call
False

----------
- protocol-description: chemical genetic growth profiling, strain panel (AID 1159580);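 note: tested at 20 µM; growth read once vehicle control cultures reached saturation at 30 °C; 1 = growth at the plate median or of vehicle wells; lower values mean less growth of the strain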
- condition-details: S. cerevisiae deletion strains, growth OD, locus YPL256C, strain CLN2, hits give low values
Among all 5,500 compounds or so, about 2,000 (36%) were called active. Inconclusive results (about 18%) are left out. Some of the results follow.
Rule: normalized growth below 1 gives 1.0. Equal to or above 1 gives 0.0.

Worked examples, 3 compounds total:
{"columns": ["compound", "assigned-label"],
 "data": [
  ["C[C@@H]1CC[C@@]23CCC4(C)[C@@](C=CC5[C@@]6(C)CC[C@H](O)C(C)(C)C6CC[C@]54C)(OC2=O)C3[C@H]1C (stereo partly drawn)", 0.0],
  ["O=C(O/N=C1/CCCc2[nH]c3ccccc3c21)c1ccc(Cl)cc1Cl", 1.0],
  ["N/C(=N/OC(=O)Nc1cccc(C(F)(F)F)c1)c1ccc(OC(F)(F)F)cc1", 1.0]
]}

A record lists `CC1(C)C=Cc2cc(/C(N)=N\OC(=O)Nc3cccc(C(F)(F)F)c3)ccc2O1` . Is its normalized growth below 1?
1.0

----------
- protocol-description: chemical genetic growth profiling, strain panel (AID 1159580);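 note: tested at 20 µM; growth read once vehicle control cultures reached saturation at 30 °C; 1 = growth at the plate median or of vehicle wells; lower values mean less growth of the strain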
- condition-details: S. cerevisiae deletion strains, growth OD, locus YER110C, hits give low values
Out of some 5,500 compounds screened, about 2,000 (36%) were called active. Not shown: some 18% with an inconclusive outcome. The list shows a part of the results.
Reported normalized growth values are given for each entry in this list.

Give its normalized growth value. Item: COC(=O)C(N)CS (stereo not drawn)
0.991 (inactive)

Give its normalized growth value. Item: `CC1(C)[C@@H]2CC[C@@]1(C)C(=O)C2`
1.01 (inactive)

----------
- protocol-description: chemical genetic growth profiling, strain panel (AID 1159580);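 note: tested at 20 µM; growth read once vehicle control cultures reached saturation at 30 °C; 1 = growth at the plate median or of vehicle wells; lower values mean less growth of the strain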
- condition-details: S. cerevisiae deletion strains, growth OD, locus YNL006W, strain LST8
Out of some 5,500 compounds screened, about 2,000 (36%) were called active. Roughly 18% stayed inconclusive and do not appear here. Cut-off read from the data, not from the text of the source: active = normalized growth mostly below about 0.91 (no sharp cut-off); inconclusive = no clear call, values can overlap the other calls; inactive = mostly above about 0.92. The list shows a part of the results.
A correct response names exactly one class from active, inactive

Worked examples, 10 compounds total:
{"columns": ["compound", "assigned-label"],
 "data": [
  ["COC(=O)/C=C1/OC(c2ccc(OC)cc2)=CC1=O", "inactive"],
  ["OC(COCc1ccccc1)Cn1c2ccccc2c2ccccc21 (stereo unspecified)", "inactive"],
  ["Cc1cc(-c2onc(C)c2C(=O)Sc2ccccc2)no1", "inactive"],
  ["O=S(=O)(Nc1ccccc1Sc1c(Cl)cncc1Cl)c1ccc(Cl)cc1", "inactive"],
  ["N/C(=N/OC(=O)c1ccc([N+](=O)[O-])cc1)c1c(Cl)cccc1Cl", "inactive"],
  ["O=C(OCc1ccccc1Br)c1cc([N+](=O)[O-])cc([N+](=O)[O-])c1", "inactive"],
  ["CCOC(=O)NC(=S)Nc1ccc(C(C)(C)C)cc1NC(=S)NC(=O)OCC", "inactive"],
  ["CC1(C)C=Cc2cc(/C(N)=N\\OC(=O)Nc3cccc(C(F)(F)F)c3)ccc2O1", "inactive"],
  ["O=C(NC(=S)NNc1ncc(C(F)(F)F)cc1Cl)c1cccs1", "active"],
  ["O=C(O/N=C1/CCCc2[nH]c3ccccc3c21)c1ccc(Cl)cc1Cl", "inactive"]
]}

Now let's try a different one.
// param item: `O=C1OC(c2ccccc2)=C/C1=C/c1ccccc1` ; yields the recorded call
inactive
